- Target Desc: recombinant human IL-5 protein (human) (UniProt P05113)
- Assay Comment: SPR, human IL-5 immobilized on chip, 1:1 fit
Result Type: kon

Query: kon; subject: 102A2E11B6 (murine hybridoma lead antibody) (antibody, V domains shown) VH: QVQLRQSGPGLVQPSQSLSITCTVSGFSLTSYGVHWVRQSPGKGLEWLGVIWSGGSTDYNAVFMSRLSISKDSSKSQVFFKMNSLQTDDTAIYYCARNRYVLDYWGQGTSVTVSS VL: DIVMTQSPSSLSVSAGERVTMRCKSSQSLLTSGDQKNHLAWYQQKPGQPPKLLIYGASTRESGVPDRFTGSGSGTDFTLTITSVQAEDLAVYYCQNDHSFPLTFGAGTKLELK
369000 M⁻¹ s⁻¹
